Values compiled from PubChem BioAssay (NCI).

The reader will find reported growth values listed item by item below.
system: UACC-257 melanoma; test: NCI-60 one-dose screen, 48 h (100 = growth as untreated, 0 = no growth, -100 = all killed); settings: 10 µM unless noted
This is part of a sample that, as a whole, favours compounds with a hit. Of some 83,000 tested, about 20% had one in any assay.
Reply numerically in %, unit not repeated.

Worked cases, growth given:
For CN(Cc1ccccc1)S(=O)(=O)/N=C1\NC(=O)NC1=C(Cl)Cl the compound record lists growth as 68.2

For CCOP(=O)(OCC)OC[C@]12CCC(C)(C)C=C1[C@H]1CC[C@@H]3[C@@]4(C)CC[C@H](OP(=O)(OCC)OCC)C(C)(C)[C@@H]4CC[C@@]3(C)[C@]1(C)CC2 the compound record lists growth as -8.01

For COc1ccc2c(c1)c(CC(=O)[Se]CC(=O)O)c(C)n2C(=O)c1ccc(Cl)cc1 the compound record lists growth as 110

For CCCn1cnc2c(c1=N)C(c1ccc(Cl)cc1)c1sc3c(C)cccc3c1O2 (centres undefined) the compound record lists growth as 86.5

Continuing:
For C=CCn1c(SCC(=O)Nc2ccc(C(=O)/C=C/c3ccc(Br)cc3)cc2)nnc1-c1c[nH]c2ccccc12 the compound record lists growth as 107

For c1n[nH]cc1-c1nc2ccc3[nH]ncc3c2c2c1CCCC2 the compound record lists growth as 37.1

For NC(=O)c1c(NC(=O)c2ccc(F)cc2F)sc2c1CCC(=O)C2 the compound record lists growth as 81.8

For Cc1cc(S(=O)(=O)N(C)C)cc(NCC(=O)NC(=O)NCC(C)C)c1C the compound record lists growth as 103

For COc1cc(/C=C2\C(=O)Nc3ccccc32)ccc1OCc1ccc(Cl)cc1 the compound record lists growth as 125

###

system: UO-31 renal; experiment: NCI-60 one-dose screen, 48 h (100 = growth as untreated, 0 = no growth, -100 = all killed); settings: 10 µM unless noted
The panel holds about 83,000 compounds, 20% with a hit somewhere; the sample as a whole holds those more often.
Note to self: values exactly at 50% are 1. So growth at or above 50% is 1, below is 0.

Does CC(c1ccccc1)N1CSc2nc3ncncc3n2C1 (stereo not given) have a reported growth of at least 50%?
0

Does NC(=O)c1c(NC(=O)c2ccccc2C(F)(F)F)sc2c1CCC(=O)C2 have a reported growth of at least 50%?
0

Does C=CCn1c(SCC(=O)Nc2ccc(C(=O)/C=C/c3cccc([N+](=O)[O-])c3)cc2)nnc1-c1c[nH]c2ccccc12 have a reported growth of at least 50%?
1

Does N/C(=N\C(N)=N\c1nc2ccccc2s1)c1ccc2ccccc2c1 have a reported growth of at least 50%?
0

Does Fc1ccc(-c2cc3nc(C(Cl)Cl)nc(-c4ccc(F)cc4)n3n2)cc1 have a reported growth of at least 50%?
0

Does COc1ccc(-n2c(/C=C3\C(=O)Nc4ccccc43)ccc2CO)cc1 have a reported growth of at least 50%?
1

Continuing:
Does Nc1ccccc1NC(=O)c1ccc(NC(=O)C/C=C/c2cccnc2)cc1 have a reported growth of at least 50%?
0

Does C=CC(=O)N1CC=C(c2cc3c(N[C@H](C)c4ccccc4)ncnc3[nH]2)CC1 have a reported growth of at least 50%?
0

Does COc1ccc2[nH]cc(-c3csc4nc(-c5ccccc5)cn34)c2c1 have a reported growth of at least 50%?
0

Does O=C(CSc1nc2ccccc2c(=O)n1-c1ccccc1)Nc1cccc(C(=O)/C=C/c2ccccc2Cl)c1 have a reported growth of at least 50%?
1

###

Tested on: HOP-92 NSCLC
Experiment: NCI-60 one-dose screen, 48 h (100 = growth as untreated, 0 = no growth, -100 = all killed)
Settings: 10 µM
Experimental: Growth inhibition of the HOP-92 human Non-Small Cell Lung tumor cell line is measured as a screen for anti-cancer activity. Cells are grown in 96 well plates and exposed to the test compound for 48 hours. Compounds are tested at a single concentration, which is 10^-5 M for most compounds. The reported endpoint is percent growth (GI% or GIPRCNT), where numbers from 0 - 100% represent growth inhibition, and numbers from -100% - 0 represent cell death. […]
This is part of a sample that, as a whole, favours compounds with a hit. Of some 83,000 tested, about 20% had one in any assay.
MEASUREMENT_NAME: growth (%)
Reply numerically in %, unit not repeated.

Worked cases, growth given:
For NC(N)=Nc1ccc(Oc2ccc(Nc3ccc(Cl)c(C(F)(F)F)c3)cc2)cc1 the compound record lists growth as 34.1

For Nn1c(N/N=C/c2nc3ccccc3s2)n[nH]c1=S the compound record lists growth as 98.7

For COC(=O)/C=C/c1c(C2(C)NC(=O)c3ccccc3N2)c(=O)oc2ccc(Cl)cc12 (stereo not given) the compound record lists growth as 88.9

For Nc1nc(Nc2ccccc2SSc2ccccc2Nc2nc(N)nc(-c3ccc4ccccc4c3)n2)nc(-c2ccc3ccccc3c2)n1 the compound record lists growth as 92.4

Continuing:
For COc1cc(-c2nn(C(C)(C)C)cc2-c2ccnc(NCCCNS(=O)(=O)c3ccc(C)cc3)n2)ccc1Cl the compound record lists growth as 70.2

###

system: MDA-MB-231 breast; assay: NCI-60 one-dose screen, 48 h (100 = growth as untreated, 0 = no growth, -100 = all killed); details: 10 µM unless noted
This is part of a sample that, as a whole, favours compounds with a hit. Of some 83,000 tested, about 20% had one in any assay.
The reader will find reported growth values listed item by item below.
Reply numerically in %, unit not repeated.

Worked cases, growth given:
Form field growth for item O=C(O)c1cn(C2CC2)c2cc(N3CCN(C(=O)CN4C(=O)CSC4=O)CC3)c(F)cc2c1=O on MDA-MB-231 breast: 81.2

Form field growth for item COc1cc(/C=C2\C(=O)Nc3cc(Cl)ccc32)ccc1OCc1ccc(F)cc1 on MDA-MB-231 breast: 92.1

Form field growth for item C=C1CC[C@@H]2[C@](C)(CO)[C@H](O)CC[C@@]2(C)[C@@H]1C/C(O)=C1\CCOC1=O on MDA-MB-231 breast: 110

Form field growth for item O=C(Nc1ccc(N=Cc2c(O)[nH]c3ccccc23)cc1)Nc1nccs1 on MDA-MB-231 breast: 47.9

Form field growth for item CS(=O)(=O)c1ccc(-c2nn(-c3ccccc3)cc2/C=N/NC(=O)c2nc(N)n[nH]2)cc1 on MDA-MB-231 breast: 98.4

Form field growth for item Cn1ccnc1C(=O)/C=C/c1ccc(CNC(=O)c2c(F)c(F)c(F)c(F)c2F)cc1 on MDA-MB-231 breast: 30.3

Continuing:
Form field growth for item COc1ccccc1-n1cc(C#N)c(N)c1C(=O)c1ccc(Br)cc1 on MDA-MB-231 breast: 79.8

Form field growth for item CC(C)(C)c1ccc(C(=O)Nc2sc3c(c2C(N)=O)CCC(O)C3)cc1 (stereo not given) on MDA-MB-231 breast: 65.6

###

Test system: HCC-2998 colon
Test: NCI-60 one-dose screen, 48 h (100 = growth as untreated, 0 = no growth, -100 = all killed)
Settings: 10 µM unless noted
Description: Growth inhibition of the HCC-2998 human tumor cell line is measured as a screen for anti-cancer activity. Cells are grown in 96 well plates and exposed to the test compound for 48 hours. Compounds are tested at a single concentration, which is 10^-5 M for most compounds. The reported endpoint is percent growth (GI% or GIPRCNT), where numbers from 0 - 100% represent growth inhibition, and numbers from -100% - 0 represent cell death. For example, a value of 40 represents 60% growth inhibition. […]
The panel holds about 83,000 compounds, 20% with a hit somewhere; the sample as a whole holds those more often. Activity calls are given as the source filed them. How the source made its calls: active means growth percent below 10; inactive means the rest.
The reader will find reported growth values listed item by item below.

Form field growth for item CS(=O)(=O)c1ncc(-c2ccccc2)cn1 on HCC-2998 colon: 104% (inactive)

Form field growth for item Cc1cc(C)n(C(=O)c2sc(=S)n(-c3ccccc3)c2N=Nc2c(N)n[nH]c2N)n1 on HCC-2998 colon: 110% (inactive)

Form field growth for item NS(=O)(=O)c1ccc(Nc2nc(N/N=C/CCc3ccccc3)nc(Nc3ccccc3)n2)cc1 on HCC-2998 colon: 113% (inactive)

Form field growth for item O=C(Nc1ccc(Br)cc1)Nc1nc2ccc([N+](=O)[O-])cc2s1 on HCC-2998 colon: 1.25% (active)

Form field growth for item CN(C)CCNC(=O)c1ccc(-c2nc3ccc4[nH]ncc4c3c3c2CCC3)cc1 on HCC-2998 colon: 2.85% (active)

From here, focus on the item given below.
Form field growth for item Cn1cc(-c2nc(N)nnc2-c2c[nH]c3ccccc23)c2cc(Br)ccc21 on HCC-2998 colon: 57.6% (inactive)

###

system: NCI-H23 lung; experiment: NCI-60 one-dose screen, 48 h; conditions: 10 µM unless noted
Compounds without any hit were thinned out: in the full panel of roughly 83,000, 20% have a hit. Calls of active or inactive are those of the source. How the source made its calls: active means growth percent below 10; inactive means the rest.
Outcomes you can answer with include only these: active, inactive

# example entries with known answers
Hi team, can someone confirm the assay call for CC(C)(C)CC(C)(C)n1nnnc1C(Nc1nccs1)c1cc2cccc3ccc4cccc1c4c32 (stereo not given) ?
inactive

Hi team, can someone confirm the assay call for N/C(=N\C(N)=N\c1nc2ccccc2s1)c1cccc(F)c1 ?
inactive

Hi team, can someone confirm the assay call for CC(=O)N1C(=S)NC(=O)C1CC(C)C (stereo not given) ?
inactive

Hi team, can someone confirm the assay call for CS(=O)(=O)Nc1cc(-c2ccc3ncc(C#N)c(NCc4cccc(F)c4)c3c2)cnc1Cl ?
active

Hi team, can someone confirm the assay call for COc1cc2oc(-c3cccc(NC(=O)c4cc(N)ccc4Cl)c3)cc(=O)c2c(OC)c1OC ?
inactive

Continuing:
Hi team, can someone confirm the assay call for Oc1cccc2ccc(-c3nnc(SCc4ccc(O)c5ncccc45)o3)nc12 ?
active
